test system: SNB-75; experiment: NCI tumour cell line growth inhibition, 48 h
The source made the active and inactive calls. Cut-off read from the data, not from the text of the source: active = GI50 up to about 1.1 µM and inactive = higher.
endpoint.label: GI50

Illustrative cases are given below, each with its answer.
Please report the recorded GI50 for "O=C1CC[C@@H](S(=O)(=O)c2ccccc2)[C@@H](/C=C/c2ccccc2)O1" . > 100 µM (inactive)

So what does the record say about GI50 for "COc1ccccc1NC(=S)Nc1cc(C)ccn1" ? > 100 µM (inactive)

Any idea what GI50 was measured for "N#CS/C(C(Cl)=C(Cl)Cl)=C(/Cl)[N+](=O)[O-]" ? 17.4 µM (inactive)

So what's the measured GI50 for this one? COc1ccc(C2=NC(CO)[C@H](c3ccccc3)O2)cc1OC (stereo partly specified) > 100 µM (inactive)

// GI50 lookup, key: "O=[N+]([O-])c1cnn(C2=CNc3ccccc3N=C2)c1" 43.8 µM (inactive)

Others:
Given the compound "C[n+]1c(-c2ccc(/C=N/N=C/c3ccc(-c4cn5ccccc5[n+]4C)cc3)cc2)cn2ccccc21" , what is its reported GI50? > 100 µM (inactive)

# get_value(readout='GI50', item= CC(=O)OCC1OC(n2c(Br)nc3c2c(=O)n(C)c(=O)n3C)C(OC(C)=O)C1OC(C)=O (stereo unspecified) ) 85.1 µM (inactive)

Form field: reported GI50 of "NC(=O)c1ncn2c(=O)n(CCl)nnc12" > 100 µM (inactive)

GI50 for C=C(C)CCC1C=[N+]([O-])OC(C)(C)C1(C)C (stereo unspecified) ? > 100 µM (inactive)

Given COc1cc2cc(C(=O)N3CC(CCl)c4c3cc([N+](=O)[O-])c3ccccc43)[nH]c2c(OC)c1OC (stereo unspecified) , state its recorded GI50. 31.8 µM (inactive)

Fill in the blank: the reported GI50 of "CCc1ccc2c(c1)/C(=C1/Nc3ccccc3/C1=N/O)C(=O)N2" is ____. 11.8 µM (inactive)

====

tested on: SK-OV-3; test: NCI tumour cell line growth inhibition, 48 h
Calls of active or inactive are those of the source. Rule as the data show it: active = GI50 up to about 1.1 µM and inactive = higher. Non-standard residues stand in square brackets, D forms with d. Residues, ends and D or L forms follow the SMILES beside them. ξ: configuration not given here. ξLac(3-iPr) = CC(C)CC(O)C(=O)O; NMeV = CN[CH](C(=O)O)C(C)C; NMeA = CN[CH](C)C(=O)O; βAla = NCCC(=O)O
endpoint.label: GI50

Known results for compounds:
Consider the compound "Cc1ccc(C2=CC(=O)/C(=C\C(=O)c3ccc(Br)cc3)O2)c(C)c1" and give its measured GI50. 7.74 µM (inactive)

Find the recorded GI50 belonging to CN(C)CCCN1CCc2c([nH]c3ccccc23)C1c1cccnc1 (stereo unspecified) and report it. > 100 µM (inactive)

What value of GI50 has been recorded for this entry: "NCCCN(CCCCN(CCCN)Cc1ccccc1)Cc1ccccc1" 62.5 µM (inactive)

Which GI50 value belongs to "COC(=O)N/N=C(\C(=O)Nc1cccc([N+](=O)[O-])c1)c1nc2ccc([N+](=O)[O-])cc2nc1O" ? > 100 µM (inactive)

Reported GI50 for O=C1C2c3[nH]c4ccccc4c3C3CCCCCCC3C2C(=O)N1c1ccccc1 (stereo unspecified) : what is it? 2.44 µM (inactive)

Can you look up the measured GI50 of "CCCCNS(=O)(=O)c1n[nH]c(=O)[nH]c1=O" for me? 17.6 µM (inactive)

Please look up its GI50: OCC(O)C1OC2CC1Nc1ccccc1N2 (stereo unspecified) > 100 µM (inactive)

Name the recorded GI50 for "Nc1nc(Sc2ccc([N+](=O)[O-])cn2)c2nc[nH]c2n1" . 3.95 µM (inactive)

---
Dear colleague, I am looking for the recorded GI50 of the following compound: "COc1cc2c(c(OC)c1OC)C(=O)[C@H]1OC(=O)N[C@@H]21" > 100 µM (inactive)

// returns reported GI50 for input CCC(C)C1NC(=O)C2CCCN2C(=O)C(CC(C)C)OC(=O)CCNC(=O)C(C)N(C)C(=O)C(C(C)C)N(C)C1=O (stereo unspecified) (cyclo([ξLac(3-iPr)]PI[NMeV][NMeA][βAla]); configuration not given here) 20.6 µM (inactive)

I'd like to know its GI50. The compound in question is "CC(C)OCN/C(N)=N\C#N" > 100 µM (inactive)

====

system: NCI-H226; test: NCI tumour cell line growth inhibition, 48 h
The source made the active and inactive calls. No stated cut-off is given here; in the data, active = GI50 up to about 1.1 µM and inactive = higher.
endpoint.label: GI50

Example entries begin here.
Need GI50, item COP(=O)(OC)C(NC(=O)C(F)(F)F)(c1ccccc1)C(F)(F)F (configuration not stated) > 100 µM (inactive)

Can you share its GI50? I mean this compound: "NC1=NC(=O)[C@H](Cc2c[nH]c3ccccc23)N1C(=O)OCc1ccccc1" 84.5 µM (inactive)

Which GI50 is reported for this compound? O=C(CC(c1ccccc1)N1CCCCC1)c1ccccc1 (configuration not stated) 18.4 µM (inactive)

What value of GI50 has been reported for the following compound? "[N-]=[N+]=Nc1ccc2c(c1)Sc1ccccc1N2CCCCCl" 48.9 µM (inactive)

---
Any idea what its GI50 is? The compound is "NC(=O)c1ncn2c(=O)n(CCl)nnc12" > 100 µM (inactive)

// GI50 lookup, key: "Cc1ccc(C2=CC(=O)/C(=C\C(=O)c3ccc(Br)cc3)O2)c(C)c1" 10.9 µM (inactive)

Which GI50 is listed for "CC(C)NC(=O)OCc1c(CO)c2c(n1C)-c1ccccc1CC2" ? 21.7 µM (inactive)

====

tested on: MOLT-4; test: NCI tumour cell line growth inhibition, 48 h
Activity calls are given as the source filed them. Rule as the data show it: active = GI50 up to about 1.1 µM and inactive = higher.
Assign a class; possible classes are active, inactive

// below: answered compounds
How did this test come out for "O=C(Nc1ccccc1)c1nn(-c2cc(S(=O)(=O)O)c([N+](=O)[O-])cc2Cl)[n+](-c2cc(S(=O)(=O)[O-])c([N+](=O)[O-])cc2Cl)n1" ? inactive

Called result for "Cc1ccc(/C=C/C(=O)c2cccc3ccccc23)cc1" inactive

Short answer needed: outcome of this test for CC(=O)OCCC(O[Si](c1ccccc1)(c1ccccc1)C(C)(C)C)C(C)(C)O (stereo not drawn) ? inactive

What classification did CC/C=C/c1cc2cc[nH]c2c2c1C(C)C[C@@H]2C (stereo partly drawn) end up with in this test? inactive

What is the recorded call for this compound in the test? "CN(CCNC(=O)c1n[nH]c2c1Cc1ccccc1-2)CCNC(=O)c1n[nH]c2c1Cc1ccccc1-2" inactive

***
For "O=C(Cn1c2c(c3ccccc31)CCCC2)N1CCOCC1" , what call appears in the results of this test? inactive

# fetch the recorded call for "O=C(Nc1ccccc1-c1nn(C(=S)Nc2ccccc2)c(=S)n(C(=S)Nc2ccccc2)c1=O)C(F)(F)F" here inactive

What outcome does the record of this test show for CC(C)(C)CC(C)(C)NCC(O)COc1ccc(C(C)(C)c2ccc(OCC(O)CNC(C)(C)CC(C)(C)C)cc2)cc1 (stereo not drawn) ? active

====

tested on: SR; test: NCI tumour cell line growth inhibition, 48 h
Active and inactive are the calls of the source. No stated cut-off is given here; in the data, active = GI50 up to about 1.1 µM and inactive = higher.
// allowed return values: active, inactive

// outcome(item) with item = COc1ccc(/C=C2\CCC(CNc3cc(C)on3)C2=O)cc1 (stereo not given) inactive

Per the assay record, what outcome was assigned to "Nc1n/c(=N\c2ccccc2)ss1" ? inactive

Tell me the assay call for "CN(C)C(=S)/N=c1\ss/c(=N\C(=S)N(C)C)n1Cc1ccco1" please. inactive

Query: recorded result category for COc1cc(C2SCC(=O)N2c2ccc(Oc3ccc(Cl)cc3)c(Cl)c2)cc(OC)c1OC (stereo not given) in this test inactive

Answer briefly: the call reported for CCOC(=O)NC(Nc1ccc(S(=O)(=O)Nc2nc(C)cc(C)n2)cc1)(C(=O)OCC)C(F)(F)F (stereo not given) in this assay. inactive

More entries:
Record request — test call for "COc1ccc(CN/C=N/C(C#N)=C(\N)C#N)cc1OC" inactive

====

system: HOP-62; assay: NCI tumour cell line growth inhibition, 48 h
Active and inactive are the calls of the source. No stated cut-off is given here; in the data, active = GI50 up to about 1.1 µM and inactive = higher.
endpoint.label: GI50

Sample records with GI50:
Please look up its GI50: CN(C)CCCN1CCc2c([nH]c3ccccc23)C1c1cccnc1 (configuration not stated) > 100 µM (inactive)

Would you mind telling me what GI50 value was observed for "O=C(Nc1ccccc1-c1nn(C(=S)Nc2ccccc2)c(=S)n(C(=S)Nc2ccccc2)c1=O)C(F)(F)F" ? 29.3 µM (inactive)

Value lookup for GI50; key = Nc1ncc2ncn(C3CCC(CO)O3)c2n1 (configuration not stated) > 100 µM (inactive)

Requested field: GI50. Item: CC(=O)OC(C[C@H](C)[C@@H]1CC[C@]2(C)C3=CCC4C(C)(C)C(=O)CC[C@]4(C)C3CCC12C)C1OC1(C)C (some centres not stated) 20.4 µM (inactive)

Give the measured GI50 of "Cc1ccc(S(=O)(=O)NC(=N)N(C)N=O)cc1" . > 100 µM (inactive)

Recorded GI50 for "CCOC(=O)c1[nH]c2c(OC)n[n+]([O-])cc2c1[N+](=O)[O-]" , please? 56.8 µM (inactive)

Value lookup for GI50; key = "NC(=O)c1ncn2c(=O)n(CCl)nnc12" > 100 µM (inactive)

Would you mind telling me what GI50 value was observed for CC1=NN=C(N)N/C1=C\C(Sc1ccc(Cl)cc1)c1ccc(Cl)cc1Cl (configuration not stated) ? 23.8 µM (inactive)

Field request: GI50 | item: "N#CC1=C2Sc3ccccc3N2[C@H](c2ccccc2)[C@H]2COC(=O)[C@@H]12" > 100 µM (inactive)

Sample COc1ccc(C(O)/C(=C/n2ccnc2)c2ccccc2)cc1OC (configuration not stated) — what was its GI50? > 100 µM (inactive)

Further cases:
Entry O=C1CC(O)C=C1Nc1ccc(Cl)cc1 (configuration not stated) : reported GI50 = ? 79.6 µM (inactive)

Endpoint output: GI50 of N/N=C(\c1nc2ccc([N+](=O)[O-])cc2nc1O)C(O)c1ccc(Cl)c(Cl)c1 (configuration not stated) . Value? > 100 µM (inactive)

Every entry's value here was drawn from ChEMBL document CHEMBL1201862.
